# Test target: Follistatin-related protein 3 (Homo sapiens)
# Test details: FSTL3 binders on small-molecule microarrays, primary screen, biochemical, small-molecule microarray, 635 nm fluorescence (AID 1105);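 also: score merges emission near 667 nm and signal to noise per printed spot across three slides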
# Measurement parameters: FSTL3 binding, higher = more signal
Short version: composite z-score at least -0.1 is rule met, less is rule not met.

COc1ccc([Si](C)(C)[C@@H]2[C@@H](CCO)O[C@]3(C(=O)N(Cc4ccc(NC(C)=O)cc4)c4ccccc43)[C@H]2C)cc1 :: rule met
CO[C@H]([C@@H](C)[C@H](OC)c1ccccc1)[C@H](C)[C@@H](OC)[C@H](C)C(C)=O :: rule not met
C=C(COC)/C(=C/C[C@H](OC(=O)c1ccncc1)c1ccc(CO)o1)c1cc(C(=O)OC)ccc1OC :: rule met
CCCNC(=O)[C@@H]1c2ccccc2C(=O)N(c2ccc(C)cn2)[C@H]1c1ccc(CO)cc1 :: rule not met
C[N+](C)(C)CCCCCCNC(=O)[C@@H]1C[C@@H]2C(=O)N3CCC[C@H]3C(=O)N2[C@@H]1c1cccc(OCCO)c1 :: rule met
C=C(/C(=C/C[C@@H](OC(=O)c1ccncc1)c1ccc(OCCO)cc1)c1cnc2ccccc2c1)C(C)C :: rule met
O=C1[C@H]2[C@H]3[C@H](O)[C@H](O)CC(=NO[C@@H]4O[C@H](CO)[C@@H](O)[C@H](O)[C@H]4O)[C@H]3CC[C@H]2C(=O)N1Cc1ccc2c(c1)OCO2 :: rule not met
[N-]=[N+]=NCc1ccccc1[C@@H]1OC(c2ccc(OCCCO)cc2)=N[C@]1(Cc1ccccc1)C(=O)N1CCOCC1 :: rule met

Exercise: Could you verify whether the entry C=CC[C@@H]1C=C[C@H](ON=C(C)CCN2CCc3nc(CC)c(CC)cc3C2)[C@@H](CO)O1 shows composite z-score of no less than -0.1?
Key: rule met

Exercise: Could you verify whether the entry Cc1ccc(S[C@]2(C(=O)NCC(F)(F)F)CC(=O)N(Cc3ccccc3Cl)[C@@H]2c2ccc(CO)cc2I)cc1 shows composite z-score of no less than -0.1?
Key: rule not met

Exercise: Could you verify whether the entry O=C1CCCC=C1C(O)CCOCc1ccccc1 (stereo unspecified) shows composite z-score of no less than -0.1?
Key: rule met

Exercise: Could you verify whether the entry CC(C)c1ccc(NN2C(C(O)c3ccc4c(c3)OCO4)C=CC3C(=O)N(c4ccccc4)C(=O)C32)cc1 (stereo unspecified) shows composite z-score of no less than -0.1?
Key: rule met

Exercise: Could you verify whether the entry CC(CCN1CCc2nc(-c3ccccc3)c(-c3ccccc3)cc2C1)=NO[C@H](C)c1cn([C@@H]2COC[C@H]2O)nn1 shows composite z-score of no less than -0.1?
Key: rule met

* * *

# Test target: Pro-neuregulin-1, membrane-bound isoform (Homo sapiens)
# Test details: NRG1 binders on small-molecule microarrays, primary screen, psychiatric disease protein project, biochemical, small-molecule microarray, fluorescence 635/667 (AID 1075);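 also: score combines 667 nm spot fluorescence with signal to noise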
# Measurement parameters: NRG1 binding, 635 nm fluorescence, higher = more signal
The following molecules are listed with their measured composite z-score values.

// solved cases for composite z-score follow
CC(CCN1CCCCc2nc(C)c(C)cc21)=NOC(C)CN1CCCc2nc(C)c(C)cc21 (stereo unspecified) :: 1.35
COCCOC(=O)N1C(=O)[C@@]2(c3cc(C#CC4(O)CCCCCC4)ccc31)[C@H](c1ccc(OCCO)cc1)N1[C@H](c3ccccc3)[C@H](c3ccccc3)OC(=O)[C@H]1[C@@H]2C(=O)NC[C@H](O)c1ccccc1 :: 1.55
CCOC(=O)C[C@H]1[C@H](OC(=O)c2ccc(C(=O)c3ccccc3)cc2)[C@@H](NC(=O)c2ccc(-c3ccccc3)cc2)c2cc(OCCCO)ccc2N1C(=O)c1ccc2ccccc2n1 :: 0.5
COC(=O)C1=C(C)[C@@H](O)[C@@H](C)[C@H](c2c(OC)c(OC)c(C)c(OC)c2OC)O1 :: -0.412
O=C(NN=C1C[C@@H](O)[C@@H](O)[C@@H]2[C@@H]3C(=O)N(c4cccc(Oc5ccccc5)c4)C(=O)[C@@H]3CC[C@H]12)OCc1ccccc1 :: 0.301

Exercise: Which composite z-score is reported for this molecule? COc1ccccc1CN1C(=O)c2ccccc2[C@@H](C(=O)NCC(F)(F)F)[C@@H]1c1ccc(CO)cc1
Key: 1.17
